target: BACE2 (Rattus norvegicus); construct: endogenous cellular BACE2 in the Ins1e rat cell line; endogenous in cells; experiment: Assay for BACE inhibition by measuring cellular TMEM27 cleavage; details: INS-TMEM27 (INS1e-derived) cells, endogenous BACE2, shed human TMEM27 in medium by ELISA
Sequence (Q6IE75 63-514): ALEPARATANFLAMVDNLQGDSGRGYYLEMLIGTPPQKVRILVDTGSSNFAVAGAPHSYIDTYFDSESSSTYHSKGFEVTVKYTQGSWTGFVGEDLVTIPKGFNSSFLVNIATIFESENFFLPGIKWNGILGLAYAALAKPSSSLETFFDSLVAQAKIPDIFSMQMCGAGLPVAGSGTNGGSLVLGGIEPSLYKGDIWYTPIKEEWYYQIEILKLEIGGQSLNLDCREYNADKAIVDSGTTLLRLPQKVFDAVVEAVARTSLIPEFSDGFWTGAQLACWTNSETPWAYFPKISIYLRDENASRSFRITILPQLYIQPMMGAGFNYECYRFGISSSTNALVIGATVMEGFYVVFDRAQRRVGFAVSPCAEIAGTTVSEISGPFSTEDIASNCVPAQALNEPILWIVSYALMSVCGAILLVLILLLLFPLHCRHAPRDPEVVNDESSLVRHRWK
property_label: IC50 (nM)
One number for each entry, in nM.

Ask | Please look up its IC50: NC1=N[C@@]2(c3cc(NC(=O)c4ccc(Cl)cn4)ccc3Cl)C[C@H]2CCS1 (racemic) [Example 4]
Reply | 690
